For each record, write down the corresponding Phage binding ELISA, Anti-CD28 Fab signal.
- system_under_test: T1, Anti-CD28 Fab (SEQ ID NOs: 696, 697)
- T1 construct: In the phage ELISA the Fab was biotinylated and captured on neutravidin coated plates
- assay_info: phage ELISA; biotinylated anti-CD28 Fab on neutravidin plate, bound phage detected with anti-M13-HRP
Answers are plain numbers.

{"binder": "SCAAGAMWEWPKCF [Phage-1610]", "meas_value": 1.32}
{"binder": "LCAAGAAWEWPMCF [Phage-1614]", "meas_value": 1.3}
{"binder": "TCSAGAHYSWPKCF [Phage-1606]", "meas_value": 1.33}
{"binder": "SCAEVFNYVWPFCF [Phage-1608]", "meas_value": 1.32}
{"binder": "SCAAGATYTWPFCL [Phage-1617]", "meas_value": 1.29}

## Task // returns reported Phage binding ELISA, Anti-CD28 Fab signal for input TCAAGVPYKWPPCL [Phage-1616]
## Result 1.29

All values here come from patent US20260242478A1.
